Molecular target: recombinant human LTA4 hydrolase (rhLTA4H) (Homo sapiens, UniProt P09960)
Construct: made in house; host or cells: Spodoptera frugiperda (Sf-9) cells, baculovirus (pFastBac1)
Sequence (P09960 whole entry): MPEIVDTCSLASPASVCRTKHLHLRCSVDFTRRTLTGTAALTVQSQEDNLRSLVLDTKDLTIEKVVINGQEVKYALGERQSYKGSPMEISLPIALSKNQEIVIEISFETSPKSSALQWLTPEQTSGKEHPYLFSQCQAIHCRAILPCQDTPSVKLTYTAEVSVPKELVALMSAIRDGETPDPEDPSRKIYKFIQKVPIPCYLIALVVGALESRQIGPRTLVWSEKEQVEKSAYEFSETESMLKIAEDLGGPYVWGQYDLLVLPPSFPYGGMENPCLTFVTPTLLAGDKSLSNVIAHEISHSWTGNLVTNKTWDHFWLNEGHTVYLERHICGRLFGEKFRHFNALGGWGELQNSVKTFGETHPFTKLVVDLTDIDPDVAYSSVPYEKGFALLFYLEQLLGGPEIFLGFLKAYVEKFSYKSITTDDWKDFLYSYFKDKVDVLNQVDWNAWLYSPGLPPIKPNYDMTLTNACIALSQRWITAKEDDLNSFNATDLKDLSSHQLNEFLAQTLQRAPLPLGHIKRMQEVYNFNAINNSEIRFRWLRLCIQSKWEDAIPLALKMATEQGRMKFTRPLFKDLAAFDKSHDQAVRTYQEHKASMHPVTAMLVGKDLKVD
Test: Recombinant human LTA4 hydrolase assay for LTA4 hydrolase inhibitor activity
Format: biochemical
Conditions: rhLTA4H, LTB4 by immunoassay; single determination or average of two or more; mark after value = form tested: ′ free base, ″ hydrochloride, ^ formate; read-out: IC50
Structures can show the parent of a compound that is named as a salt.
Exam item: assign true to entries whose IC50 is below 20 nM and false to entries at or above 20 nM. Note that a value of exactly 20 nM receives false.

>>> classification("O=C(NCc1coc2cc(Oc3nc4ncccc4s3)ccc12)[C@@H]1C[C@@H]2CC[C@H]1C2 (relative stereo)")
"false"
>>> classification("c1ccc(C2CCN(Cc3coc4cc(Oc5nc6ncccc6s5)ccc34)CC2)cc1 [Example 280, formate]")
"true"
>>> classification("OC1(c2ccc(Br)cc2)CCN(Cc2coc3cc(Oc4nc5ncccc5s4)ccc23)CC1")
"false"
>>> classification("CCCOC1CN(Cc2coc3cc(Oc4nc5ncccc5s4)ccc23)C1")
"true"
>>> classification("CC(=O)NC1CCN(Cc2cc3ccc(Oc4nc5ncccc5s4)cc3o2)C1 (stereo not shown) [Example 120, formate]")
"false"
>>> classification("CC(=O)N1C[C@H]2CC[C@@H](C1)N2Cc1cc2cc(Oc3nc4cccnc4s3)ccc2o1")
"false"
>>> classification("CC(=O)N[C@H]1C[C@H]2CC[C@@H](C1)N2CCc1coc2cc(Oc3nc4ccccc4s3)ccc12")
"true"
>>> classification("CC(=O)N1CCN(Cc2cc3ncc(Oc4nc5ncccc5s4)cc3o2)CC1 [Example 343, formate]")
"false"
>>> classification("c1cnc2nc(Oc3ccc4cc(CN5CCCCC5)oc4c3)sc2c1 [Example 192, formate]")
"false"
>>> classification("CC(C)(C)NCc1coc2cc(Oc3nc4ncccc4s3)ccc12 [Example 301, formate]")
"true"
>>> classification("CC(=O)N[C@H]1C[C@H]2CC[C@@H](C1)N2Cc1c[nH]c2cc(Oc3nc4ccccc4s3)ccc12")
"true"
>>> classification("CNC(=O)C1CCN(Cc2cc3ccc(Oc4nc5ncccc5s4)cc3o2)CC1")
"false"
>>> classification("NC(=O)N1CC2CCC(C1)N2C(=O)c1coc2cc(Oc3nc4ncccc4s3)ccc12")
"true"
